molecular target: T1, hPD-1.His (human, UniProt Q15116 25-170); assay: SPR (ProteOn XPR36), antibody captured on Protein A, PD-1.His as analyte, 1:1 fit
T1 construct: the SPR text says only human PD-1; also called human PD-1 (SPR analyte)
T1 sequence (Q15116 25-170): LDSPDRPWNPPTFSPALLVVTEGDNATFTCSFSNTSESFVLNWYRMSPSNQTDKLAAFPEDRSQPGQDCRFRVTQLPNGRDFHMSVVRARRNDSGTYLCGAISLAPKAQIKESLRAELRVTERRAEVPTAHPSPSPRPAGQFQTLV
MEASUREMENT KIND: kon (M⁻¹ s⁻¹)
Number in M⁻¹ s⁻¹, nothing else.

The following binders have reported results that may help.
binder="2E5 (antibody, human IgG4, V domains shown) VH: QVQLVQSGAEVKKPGSSVKVSCKASGFTFTTYYISWVRQAPGQGLEYLGYINMGSGGTNYNEKFKGRVTITADKSTSTAYMELSSLRSEDTAVYYCAIIGYFDYWGQGTMVTVSS VL: DVVMTQSPLSLPVTLGQPASISCRSSQSLLDSDGGTYLYWFQQRPGQSPRRLIYLVSTLGSGVPDRFSGSGSGTDFTLKISRVEAEDVGVYYCMQLTHWPYTFGQGTKLEIK" measurement=597000
binder="2C2 (antibody, human IgG4, V domains shown) VH: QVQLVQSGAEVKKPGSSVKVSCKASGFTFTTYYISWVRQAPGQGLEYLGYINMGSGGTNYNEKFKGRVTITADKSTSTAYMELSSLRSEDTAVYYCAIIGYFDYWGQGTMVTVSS VL: DVVMTQSPLSLPVTLGQPASISCRSSQSLLDSDGATYLYWFQQRPGQSPRRLIYLVSTLGSGVPDRFSGSGSGTDFTLKISRVEAEDVGVYYCMQLTHWPYTFGQGTKLEIK" measurement=733000
binder="1H6 (antibody, human IgG4, V domains shown) VH: QVQLVQSGAEVKKPGSSVKVSCKASGFTFTTYYISWVRQAPGQGLEYLGYINMGSGGTNYNEKFKGRVTITADKSTSTAYMELSSLRSEDTAVYYCAILGYFDYWGQGTMVTVSS VL: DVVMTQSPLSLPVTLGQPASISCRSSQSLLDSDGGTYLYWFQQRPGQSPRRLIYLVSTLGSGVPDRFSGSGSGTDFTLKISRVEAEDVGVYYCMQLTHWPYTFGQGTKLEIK" measurement=644000

Switching to the query record.
Inquiry: Please look at this binder and report its kon: 2G4 (antibody, human IgG4, V domains shown) VH: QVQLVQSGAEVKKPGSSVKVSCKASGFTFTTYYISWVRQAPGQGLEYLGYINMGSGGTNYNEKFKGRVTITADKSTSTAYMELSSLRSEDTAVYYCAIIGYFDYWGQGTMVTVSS VL: DVVMTQSPLSLPVTLGQPASISCRSSQSLLDSDGSTYLYWFQQRPGQSPRRLIYLVSTLGSGVPDRFSGSGSGTDFTLKISRVEAEDVGVYYCMQLTHWPYTFGQGTKLEIK
Reply text: 663000
